- Test system: ACHN
- protocolDescription: NCI tumour cell line growth inhibition, 48 h
Activity calls are given as the source filed them. No stated cut-off is given here; in the data, active = GI50 up to about 1.1 µM and inactive = higher.
Form entry, call: pick from TRUE for active, FALSE for inactive

These recorded examples may help you get a feel for the data.
1) OC(c1ccccc1)(c1ccccc1)c1nccc2ccccc12 :: FALSE
2) COc1ccc(C=C2C(=O)OC(C)(C)OC2=O)cc1OC :: FALSE
3) O=S(=O)(O)c1cccc2c(/N=N/c3c(O)ccc4ccccc34)cccc12 :: FALSE
4) CC(=O)c1c2c(cc3c1CC1(Cc4cc5c(cc4C1)CCCC5)C3)CCCC2 :: FALSE
5) COc1cc([C@@H]2c3cc4c(cc3[C@@H](NCc3ccccc3F)C3COC(=O)[C@@H]32)OCO4)cc(OC)c1O (some centres not stated) :: TRUE

Query block: Write down the call the test reported for this molecule. Item: CCNc1ncnc2sc(SCc3ccccc3)nc12
Result block: FALSE

Query block: Ok, now Nc1ccccc1C(=O)NC(=O)Nc1ccc(Oc2ncc(Br)cn2)c(Cl)c1
Result block: TRUE

----------
- Test system: HCC 2998
- protocolDescription: NCI tumour cell line growth inhibition, 48 h
Activity calls are given as the source filed them. Rule as the data show it: active = GI50 up to about 1.1 µM and inactive = higher.
Form entry, call: pick from 1.0 = active, 0.0 = inactive

1. N#Cc1sc2c(c1OC(=O)c1ccc(C(F)(F)F)cc1)c(=O)n(-c1ccccc1)c(=S)n2-c1ccccc1 :: 0.0

Query block: Write down the call the test reported for this compound. Item: CCN1CCCC(Nc2cc(C)nc(NC(=N)Nc3ccc(Cl)c(Cl)c3)n2)C1 (stereo not drawn)
Result block: 1.0

Query block: Ok, now Cc1cc(NS(=O)(=O)c2ccc(NC(=O)c3ccc4nc5ccccc5c(Nc5ccc(S(=O)(=O)N=C(N)N)cc5)c4c3)cc2)no1
Result block: 0.0

Query block: Ok, now Cc1nc2c(o1)/C(=N\c1ccccc1)c1nc(C)oc1/C2=N/c1ccccc1
Result block: 0.0

Query block: Ok, now CC(=O)OCC(OC(C)=O)C(OC(C)=O)C(OC(C)=O)C(C=NN(C(C)=O)S(=O)(=O)c1ccc(/C=C2\NC(=O)NC2=O)cc1)OC(C)=O (stereo not drawn)
Result block: 0.0

Query block: Ok, now c1ccc(-c2nc(-c3ccccc3)c(-c3ccccc3)[nH]2)cc1
Result block: 0.0

----------
Entries and their GI50
- Test system: LOX IMVI
- protocolDescription: NCI tumour cell line growth inhibition, 48 h
Calls of active or inactive are those of the source. Rule as the data show it: active = GI50 up to about 1.1 µM and inactive = higher.

Sample records with GI50:
1. CC(C)(C)c1c(C(C)(C)C)c(=O)c1=O :: > 100 µM (inactive)
2. CC(=O)c1ccc(Br)cc1NC1=CC(=O)c2ncccc2C1=O :: 5.79 µM (inactive)
3. CC1(C)C2C/C(=C\c3ccccc3)C(=O)C1C2 (centres undefined) :: > 100 µM (inactive)
4. COc1ccc(C2c3cc4c(cc3C(O)C3CCC(=O)N23)OCO4)cc1 (centres undefined) :: > 100 µM (inactive)
5. CCOC(=O)c1c(-c2ccccc2)c(OC)cn1C :: > 10 µM (inactive)

Query block: Give its GI50 value. Item: CCOC(=O)CSc1nc(N)c2c(-c3ccccc3)c3c(nc2n1)CCCC3
Result block: > 100 µM (inactive)

Query block: Ok, now CC1C(c2ccccc2)=CCON1c1ccccc1 (centres undefined)
Result block: > 100 µM (inactive)
